# Test system: HepG2
# protocol: cytotoxicity call (relative viability < 0.9)
# conditionSummary: 10 µM
The campaign covered roughly 39,000 compounds. About 3,300 (8.5%) were called active. What follows is part of a selection rich in actives, with near analogues and random picks from the rest.
One label from this list, please: active, inactive

Examples from the recorded data:
O=C(C[C@@H]1CC[C@H]2[C@@H](COC[C@@H](O)CN2C(=O)Nc2ccc(Cl)cc2)O1)NC1Cc2ccccc2C1 ... inactive
CC(C)NC(=O)N(C)C[C@H]1Oc2ccc(NC(=O)Cc3ccccc3)cc2CC(=O)N([C@@H](C)CO)C[C@@H]1C ... inactive
O=C(C[C@H]1CC[C@H]2[C@@H](COC[C@@H](O)CN2C(=O)Nc2ccc(Cl)cc2)O1)NC1Cc2ccccc2C1 ... active

Now look at this one.
Inquiry: Assay outcome for O=C(C[C@@H]1CC[C@@H]2[C@H](COC[C@@H](O)CN2C(=O)Nc2ccc(Cl)cc2)O1)NC1Cc2ccccc2C1 : what was it?
Reply text: active

---

# Test system: HepG2
# protocol: cytotoxicity call (relative viability < 0.9)
# conditionSummary: 10 µM
Screen size: about 39,000 compounds; about 3,300 (8.5%) were called active. The full list was thinned out, with actives kept by preference.
One label from this list, please: active, inactive

Examples from the recorded data:
Cc1ccc(S(=O)(=O)N(C)C[C@@H]2Oc3ccc(NC(=O)C4CC4)cc3C(=O)N([C@H](C)CO)C[C@@H]2C)cc1 ... inactive
COc1ccccc1S(=O)(=O)N[C@H]1CC[C@@H](CCNC(=O)C2CC2)O[C@H]1CO ... inactive
C[C@@H]1CN([C@@H](C)CO)C(=O)c2cc(NS(=O)(=O)c3cccs3)ccc2O[C@@H](C)CCCCO[C@@H]1CN(C)CC1CCCCC1 ... inactive
Cc1ccc(S(=O)(=O)N(C)C[C@@H]2Oc3ccc(NC(=O)C4CC4)cc3C(=O)N([C@@H](C)CO)C[C@H]2C)cc1 ... active
C[C@@H]1CCCCO[C@@H](CN(C)C(=O)Cc2ccccc2)[C@@H](C)CN([C@@H](C)CO)C(=O)c2cc(NC(=O)Nc3ccc(C(F)(F)F)cc3)ccc2O1 ... inactive
Cc1ccc(S(=O)(=O)N(C)C[C@H]2Oc3ccc(NC(=O)C4CC4)cc3C(=O)N([C@@H](C)CO)C[C@H]2C)cc1 ... inactive

Now look at this one.
Inquiry: Assay outcome for Cc1cccc(S(=O)(=O)N2C[C@@H](O)COC[C@@H]3O[C@H](CC(=O)N4CCN(C)CC4)CC[C@H]32)c1 : what was it?
Reply text: inactive

---

# Test system: HepG2
# protocol: cytotoxicity call (relative viability < 0.9)
# conditionSummary: 10 µM
About 3,300 (8.5%) of roughly 39,000 compounds were called active. This excerpt belongs to a sample that is enriched for actives.
One label from this list, please: TRUE for active, FALSE for inactive

Inquiry: Assay outcome for C[C@H]1CN([C@@H](C)CO)C(=O)Cc2cc(NC(=O)Nc3ccc(F)cc3)ccc2O[C@@H]1CN(C)Cc1ccc(C(F)(F)F)cc1 : what was it?
Reply text: FALSE

Inquiry: Assay outcome for COc1ccc(NC(=O)Nc2ccc3c(c2)C(=O)N([C@H](C)CO)C[C@@H](C)[C@H](CN(C)Cc2ccccc2)OCCCC[C@H](C)O3)cc1 : what was it?
Reply text: TRUE

Inquiry: Assay outcome for COc1ccc(NC(=O)Nc2ccc3c(c2)C(=O)N([C@@H](C)CO)C[C@@H](C)[C@@H](CN(C)Cc2ccccc2)OCCCC[C@H](C)O3)cc1 : what was it?
Reply text: FALSE

Inquiry: Assay outcome for C=CCOC(=O)[C@@H]1[C@H]2C(=O)O[C@H](c3ccccc3)[C@H](c3ccccc3)N2[C@H](c2ccc(OCCOC(=O)[C@H]3C[C@H]4C(=O)NCC(=O)N4[C@H]3c3ccc(O)cc3)cc2)[C@@]12C(=O)Nc1ccc(I)cc12 : what was it?
Reply text: FALSE

Inquiry: Assay outcome for COc1ccc(NC(=O)Nc2ccc3c(c2)C(=O)N([C@@H](C)CO)C[C@H](C)[C@@H](CN(C)Cc2ccccc2)OCCCC[C@@H](C)O3)cc1 : what was it?
Reply text: FALSE

Inquiry: Assay outcome for C[C@@H]1CN([C@H](C)CO)C(=O)Cc2cc(NC(=O)Nc3ccc(F)cc3)ccc2O[C@@H]1CN(C)Cc1ccc(C(F)(F)F)cc1 : what was it?
Reply text: TRUE

Inquiry: Assay outcome for COc1ccc(NC(=O)Nc2ccc3c(c2)C(=O)N([C@@H](C)CO)C[C@@H](C)[C@H](CN(C)Cc2ccccc2)OCCCC[C@H](C)O3)cc1 : what was it?
Reply text: TRUE

Inquiry: Assay outcome for COc1ccc(NC(=O)Nc2ccc3c(c2)C(=O)N([C@H](C)CO)C[C@@H](C)[C@@H](CN(C)Cc2ccccc2)OCCCC[C@@H](C)O3)cc1 : what was it?
Reply text: FALSE

Inquiry: Assay outcome for C[C@H]1CN([C@@H](C)CO)C(=O)Cc2cc(NC(=O)Nc3ccc(F)cc3)ccc2O[C@H]1CN(C)Cc1ccc(C(F)(F)F)cc1 : what was it?
Reply text: TRUE

Inquiry: Assay outcome for COc1ccc(NC(=O)Nc2ccc3c(c2)C(=O)N([C@H](C)CO)C[C@@H](C)[C@@H](CN(C)Cc2ccccc2)OCCCC[C@H](C)O3)cc1 : what was it?
Reply text: FALSE

Inquiry: Assay outcome for CC(OC1OCCN(C(C)c2nc(=O)[nH][nH]2)C1c1ccc(F)cc1)c1cc(C(F)(F)F)cc(C(F)(F)F)c1 (centres undefined) : what was it?
Reply text: TRUE

Inquiry: Assay outcome for C[C@@H]1CCCCO[C@@H](CN(C)S(C)(=O)=O)[C@@H](C)CN([C@H](C)CO)C(=O)c2cc(NC(=O)c3ccncc3)ccc2O1 : what was it?
Reply text: FALSE

Inquiry: Assay outcome for CC(=O)Nc1ccc(C(=O)NN)cc1 : what was it?
Reply text: FALSE

Inquiry: Assay outcome for COc1ccc(NC(=O)Nc2ccc3c(c2)C(=O)N([C@H](C)CO)C[C@@H](C)[C@H](CN(C)Cc2ccccc2)OCCCC[C@@H](C)O3)cc1 : what was it?
Reply text: TRUE

---

# Tested on: HepG2
# protocol: cytotoxicity call (relative viability < 0.9)
# conditionSummary: 10 µM
Out of some 39,000 compounds screened, about 3,300 (8.5%) were called active. For the sample, actives were picked, then their nearest neighbours and some compounds at random.
One label from this list, please: yes for active, no for inactive

Examples from the recorded data:
C[C@@H]1CN([C@@H](C)CO)C(=O)Cc2cc(NC(=O)Nc3ccc(C(F)(F)F)cc3)ccc2O[C@@H]1CN(C)Cc1ccc2c(c1)OCO2 ... yes
O=C(O)Cc1ccc(CO)cc1 ... no
CCS(=O)(=O)N1CCNCC1 ... no
C[C@@H]1CN([C@H](C)CO)C(=O)c2cccc(NC(=O)C3CC3)c2O[C@@H]1CN(C)S(=O)(=O)c1ccc(F)cc1 ... no
CCOC(=O)CCCCCC(=O)Nc1ccc2c(c1)C(=O)N([C@H](C)CO)C[C@@H](C)[C@@H](CN(C)C(=O)CCC(F)(F)F)OCCCC[C@H](C)O2 ... no

Now look at this one.
Inquiry: Assay outcome for C[C@@H]1CN([C@@H](C)CO)C(=O)c2cc(NC(=O)Nc3ccc(C(F)(F)F)cc3)ccc2O[C@@H]1CN(C)S(=O)(=O)c1ccc(F)cc1 : what was it?
Reply text: yes

---

# Tested on: HepG2
# protocol: cytotoxicity call (relative viability < 0.9)
# conditionSummary: 10 µM
Among all 39,000 compounds or so, about 3,300 (8.5%) were called active. The sample as a whole holds a higher share of actives than the screen did.
assayEndpoint: cytotoxicity call

C[C@@H]1CN([C@@H](C)CO)C(=O)c2cc(NS(=O)(=O)c3cccs3)ccc2O[C@@H](C)CCCCO[C@H]1CN(C)Cc1ccc2c(c1)OCO2 ... inactive
Cc1c(N)nc([C@H](CC(N)=O)NC[C@H](N)C(N)=O)nc1C(=O)N[C@H](C(=O)N[C@H](C)[C@@H](O)[C@H](C)C(=O)N[C@H](C(=O)NCCc1nc(-c2nc(C(=O)NCCCNCCCCN)cs2)cs1)[C@@H](C)O)[C@@H](O[C@@H]1O[C@@H](CO)[C@@H](O)[C@H](O)[C@@H]1O[C@@H]1O[C@H](CO)[C@@H](O)[C@H](OC(N)=O)[C@@H]1O)c1c[nH]cn1 ... inactive

---

# Test system: HepG2
# protocol: cytotoxicity call (relative viability < 0.9)
# conditionSummary: 10 µM
Screen size: about 39,000 compounds; about 3,300 (8.5%) were called active. Only a selection was taken, and actives are over-represented in it overall.
One label from this list, please: Y for active, N for inactive

Examples from the recorded data:
Cc1cc(C(=O)Nc2cccc3c2O[C@H](CN(C)S(=O)(=O)c2c(C)noc2C)[C@H](C)CN([C@@H](C)CO)C3=O)n(C)n1 ... N
COc1ccc(NC(=O)Nc2ccc3c(c2)C(=O)N([C@@H](C)CO)C[C@H](C)[C@@H](CN(C)S(=O)(=O)c2ccc(C)cc2)OCCCC[C@@H](C)O3)cc1 ... Y
COc1ccc(NC(=O)Nc2ccc3c(c2)C(=O)N([C@H](C)CO)C[C@H](C)[C@H](CN(C)S(=O)(=O)c2ccc(C)cc2)OCCCC[C@H](C)O3)cc1 ... N

Inquiry: Assay outcome for COc1ccc(S(=O)(=O)N(C)C[C@H]2OCCCC[C@H](C)Oc3ccc(NC(=O)Nc4ccc5c(c4)OCO5)cc3C(=O)N([C@H](C)CO)C[C@H]2C)cc1 : what was it?
Reply text: N

Inquiry: Assay outcome for COc1ccc(NC(=O)Nc2ccc3c(c2)C(=O)N([C@H](C)CO)C[C@H](C)[C@H](CN(C)S(=O)(=O)c2ccc(Cl)cc2)OCCCC[C@@H](C)O3)cc1 : what was it?
Reply text: N

Inquiry: Assay outcome for COc1ccc(NC(=O)Nc2ccc3c(c2)C(=O)N([C@@H](C)CO)C[C@H](C)[C@H](CN(C)S(=O)(=O)c2ccc(C)cc2)OCCCC[C@H](C)O3)cc1 : what was it?
Reply text: Y
